The values you see were collected from ChEMBL document CHEMBL4819135.

- Tested on: Human immunodeficiency virus 1
- protocol: Antiviral activity against HIV-1 IIIB harboring RT F227L/V106A mutant infected in human MT4 cells assessed as protection against virus-induced cytotoxicity incubated for 5 days by MTT assay
- Type: functional, organism-based
- reported.conditions: Human immunodeficiency virus 1, IIIB, MT4, 120 h
metric: log10 of EC50 (log10 of the value in nM)
Could you please treat all values as log10 of EC50 in nM?

INSERT INTO measurements (compound, metric, recorded_value) VALUES
  ('Cc1cc(C#N)cc(C)c1Oc1nc(Nc2ccc(C#N)cc2)ncc1-c1ccco1', 'log10 of EC50', 1.88),
  ('Cc1cc(C#N)cc(C)c1Oc1nc(Nc2ccc(C#N)cc2)ncc1-c1ccncc1', 'log10 of EC50', 1.62),
  ('Cc1cc(C#N)cc(C)c1Oc1nc(Nc2ccc(C#N)cc2)ncc1-c1cncnc1', 'log10 of EC50', 2.51),
  ('Cc1cc(C#N)cc(C)c1Oc1nc(Nc2ccc(C#N)cc2)ncc1-c1ccc(C(F)(F)F)cc1', 'log10 of EC50', 2.86),
  ('Cc1cc(C#N)cc(C)c1Oc1nc(Nc2ccc(C#N)cc2)ncc1-c1cccnc1', 'log10 of EC50', 2.05),
  ('Cc1ccnc2c1NC(=O)c1cccnc1N2C1CC1 [NEVIRAPINE]', 'log10 of EC50', 3.63);

Provide measured log10 of EC50 value, entry: `Cc1cc(C#N)cc(C)c1Oc1nc(Nc2ccc(C#N)cc2)ncc1-c1cccc2ccccc12`
4.58

Give log10 of EC50 for `Cc1cc(C#N)cc(C)c1Oc1nc(Nc2ccc(C#N)cc2)ncc1-c1ccc(N)cc1`
1.64
